# Read-out: cysteine-aspartic acid protease (CASP8), CASP8 (gene 841)
# protocolDetails: LTEA_HepaRG_CASP8: Life Technologies and Expression Analysis (LTEA) Assay for cysteine-aspartic acid protease (CASP8) using HepaRG (AID 2283480)
# appliedConditions: mRNA level, 48 h; actives raise or lower the signal
The source made the active and inactive calls. How the source made its calls: active means hit-call score of the fitted dose curve at least 0.9, where 1 is the maximum; inactive means score below 0.9.
Outcome codes: active, inactive

molecule: CCc1cccc(C)c1N(C(=O)CCl)C(C)COC (stereo unspecified)
classLabel: inactive
//
molecule: CCOP(=S)(OCC)Oc1cc(C)nc(C(C)C)n1
classLabel: inactive
//
molecule: CC(Oc1cccc(Cl)c1)C(=O)O (stereo unspecified)
classLabel: inactive
//
molecule: Nc1c(Cl)cc([N+](=O)[O-])cc1Cl
classLabel: active
//
molecule: CN(C)[C@@H]1C(=O)C(C(N)=O)=C(O)[C@@]2(O)C(=O)C3=C(O)c4c(O)cccc4[C@@](C)(O)[C@H]3[C@H](O)[C@@H]12
classLabel: inactive
//
molecule: CC1(C(=O)Nc2ccc(O)c(Cl)c2Cl)CCCCC1
classLabel: inactive
//
molecule: COP(=O)(NC(C)=O)SC (stereo unspecified)
classLabel: inactive
//
molecule: S=C1NCCN1
classLabel: inactive
//
molecule: Cc1ccn2nc(S(=O)(=O)Nc3c(F)cccc3F)nc2n1
classLabel: inactive
//
molecule: COP(=O)(OC)OC(Br)C(Cl)(Cl)Br (stereo unspecified)
classLabel: inactive
//
molecule: CNC(=O)ON=C(C)SC
classLabel: inactive
//
molecule: CSC1=N[C@@](C)(c2ccccc2)C(=O)N1Nc1ccccc1
classLabel: inactive
//
molecule: CC1=NNC(=O)N(/N=C/c2cccnc2)C1
classLabel: inactive
//
molecule: CN1COCN(Cc2cnc(Cl)s2)C1=N[N+](=O)[O-]
classLabel: inactive
//
molecule: CC(=NC#N)N(C)Cc1ccc(Cl)nc1
classLabel: inactive
//
molecule: CCOP(=O)(SC(C)CC)N1CCSC1=O (stereo unspecified)
classLabel: inactive
//
molecule: C#CCC1=C(C)C(OC(=O)C2C(C=C(C)C)C2(C)C)CC1=O (stereo unspecified)
classLabel: inactive
//
molecule: COP(=O)(OC)SCn1c(=O)oc2cc(Cl)cnc21
classLabel: inactive
//
molecule: C[Si](Cn1cncn1)(c1ccc(F)cc1)c1ccc(F)cc1
classLabel: inactive
//
molecule: CCc1cccc(CC)c1N(COC)C(=O)CCl
classLabel: inactive
//
molecule: COc1cccc(C(=O)NN(C(=O)c2cc(C)cc(C)c2)C(C)(C)C)c1C
classLabel: inactive
//
molecule: CCCCSP(=O)(SCCCC)SCCCC
classLabel: inactive
//
molecule: CCOP(=S)(Oc1cnc(C(C)(C)C)nc1)OC(C)C (stereo unspecified)
classLabel: inactive
//
molecule: CCCCOC(=O)c1ccccc1C(=O)O
classLabel: inactive
//
molecule: C=C(C)[C@H]1Cc2c(ccc3c2O[C@@H]2COc4cc(OC)c(OC)cc4[C@@H]2C3=O)O1
classLabel: inactive
//
molecule: CCc1cnc(C2=NC(C)(C(C)C)C(=O)N2)c(C(=O)O)c1 (stereo unspecified)
classLabel: inactive

###

# Read-out: Monokine induced gamma interferon (MIG), CXCL9 (gene 4283)
# protocolDetails: BSK_CASM3C_MIG: BioMAP Diversity Plus: CASM3C Assay for Monokine induced gamma interferon (MIG) Biomarker Activity (AID 2283048);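 further: MIG protein level measured by ELISA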
# appliedConditions: primary human coronary artery smooth muscle cells; actives raise or lower the signal
Calls of active or inactive are those of the source. Rule for the calls: active = hit-call score of the fitted dose curve at least 0.9, where 1 is the maximum; inactive = score below 0.9.
Outcome codes: true (1) (active), false (0) (inactive)

molecule: CCc1cnc(C2=NC(C)(C(C)C)C(=O)N2)c(C(=O)O)c1 (configuration not stated)
classLabel: false (0)

molecule: CC(C)[C@H](C(=O)O[C@H](C#N)c1cccc(Oc2ccccc2)c1)c1ccc(Cl)cc1
classLabel: false (0)

molecule: CON=C(C(=O)OC)c1ccccc1CON=C(C)c1cccc(C(F)(F)F)c1
classLabel: false (0)

molecule: CCOP(=S)(OCC)SCCSCC
classLabel: false (0)

molecule: CCC(CC)Nc1c([N+](=O)[O-])cc(C)c(C)c1[N+](=O)[O-]
classLabel: false (0)

molecule: C[N+]1(C)CCCCC1
classLabel: false (0)

molecule: COc1ccc(C(=CC(=O)N2CCOCC2)c2ccc(Cl)cc2)cc1OC
classLabel: false (0)

molecule: CC(C1CC1)C(O)(Cn1cncn1)c1ccc(Cl)cc1 (configuration not stated)
classLabel: false (0)

molecule: CCCCSP(=O)(SCCCC)SCCCC
classLabel: false (0)

molecule: CNc1cnn(-c2cccc(C(F)(F)F)c2)c(=O)c1Cl
classLabel: false (0)

molecule: CC(COc1ccc(Oc2ccccc2)cc1)Oc1ccccn1 (configuration not stated)
classLabel: false (0)

molecule: CCOP(=S)(Oc1cnc(C(C)(C)C)nc1)OC(C)C (configuration not stated)
classLabel: false (0)

molecule: CC(C)N(C(=O)SCC(Cl)=C(Cl)Cl)C(C)C
classLabel: false (0)

molecule: CCCSP(=O)(OCC)Oc1ccc(Br)cc1Cl (configuration not stated)
classLabel: false (0)

molecule: COc1cc(OC)nc(Sc2cccc(Cl)c2C(=O)O)n1
classLabel: false (0)

molecule: COP(=O)(OC)SCn1c(=O)oc2cc(Cl)cnc21
classLabel: true (1)

molecule: C#CCC1=C(C)C(OC(=O)C2C(C=C(C)C)C2(C)C)CC1=O (configuration not stated)
classLabel: false (0)

molecule: CCOC(=O)COc1cc(-c2nn(C)c(OC(F)F)c2Cl)c(F)cc1Cl
classLabel: false (0)

molecule: CCCCOC(=O)[C@@H](C)Oc1ccc(Oc2ccc(C#N)cc2F)cc1
classLabel: false (0)

molecule: CC[C@H](C)[C@H]1O[C@]2(C=C[C@@H]1C)C[C@@H]1C[C@@H](C/C=C(\C)[C@@H](O[C@H]3C[C@H](OC)[C@@H](O[C@H]4C[C@H](OC)[C@@H](NC)[C@H](C)O4)[C@H](C)O3)[C@@H](C)/C=C/C=C3\CO[C@@H]4[C@H](O)C(C)=C[C@@H](C(=O)O1)[C@]34O)O2
classLabel: true (1)

molecule: CCOP(=S)(OCC)Oc1ccc([N+](=O)[O-])cc1
classLabel: false (0)

molecule: Cc1ccn2nc(S(=O)(=O)Nc3c(F)cccc3F)nc2n1
classLabel: false (0)
